System: Plasmodium telomeric sequence FPf1T
Assay: FRET-melting, FPf1T
Conditions: K+ condition, 2 μM compound, 0.2 μM oligonucleotide
Structures can show the parent of a compound that is named as a salt.
Entries and their FRET-melting values in K+ conditions at 2 μM ΔTm FPf1T
Return type: number; implicit unit °C.

Record excerpt, results attached:
CN1CCN(CCCNCc2ccc(-c3nc(-c4ccc(CNCCCN5CCN(C)CC5)cc4)c4sccc4n3)cc2)CC1 [Compound 30B, oxalate] : 14.9
CN(C)CCCCCNCc1ccc(-c2nc(-c3ccccc3)c3ccn(-c4ccc(CNCCCCCN(C)C)cc4)c3n2)cc1 [Compound 35B, oxalate] : 25.4
CN(C)CCCNCc1ccc(-c2nc(Cl)nc3c2ncn3-c2ccccc2)cc1 [Compound 43B] : 2.4
CN(C)CCCNCc1ccc(-c2nc(-c3ccc(CNCCCN(C)C)cc3)c3ccn(-c4ccccc4)c3n2)cc1 [Compound 1B, oxalate] : 23.6
CN(C)CCCNCc1ccc(-c2nc(-c3ccc(CNCCCN(C)C)cc3)c3ccsc3n2)cc1 [Compound 26B] : 11.2

Which value of FRET-melting values in K+ conditions at 2 μM ΔTm FPf1T has been reported for CN(C)CCCNCc1ccc(-c2nc(-c3ccc(CNCCCN(C)C)s3)c3ccn(-c4ccccc4)c3n2)cc1 [Compound 6B, oxalate] in the records?
26.3

Can you share its FRET-melting values in K+ conditions at 2 μM ΔTm FPf1T? I mean this molecule: CN(C)CCCCCNCc1ccc(-c2nc(-c3ccc(CNCCCCCN(C)C)cc3)c3cnn(-c4ccccc4)c3n2)cc1 [Compound 41B]
36.4

Can you share its FRET-melting values in K+ conditions at 2 μM ΔTm FPf1T? I mean this molecule: CN(C)CCCNCc1ccc(-c2nc(-c3ccc(CNCCCN(C)C)cc3)c3ccn(C)c3n2)cc1 [Compound 8B, oxalate]
10.3

Item under review: CN(C)CCCNCc1ccc(-c2nc3c(c(-c4ccc(CNCCCN(C)C)cc4)n2)CCNC3)cc1 [Compound 25B] . Reported FRET-melting values in K+ conditions at 2 μM ΔTm FPf1T?
10.7

# query: FRET-melting values in K+ conditions at 2 μM ΔTm FPf1T of entry CN(C)CCCNCc1ccc(-c2nc3c(c(-c4ccc(CNCCCN(C)C)cc4)n2)CCN(C(=O)OC(C)(C)C)C3)cc1 [Compound 24B]
9.1

Consider the molecule CN(C)CCCNCc1ccc(-c2cc(Cl)nc3c2ccn3-c2ccccc2)cc1 [Compound 47B, oxalate] and give its measured FRET-melting values in K+ conditions at 2 μM ΔTm FPf1T.
3.3

###

Assay: Cytotoxicity evaluation, MTT
Assay type: cell-based, human
Conditions: HepG2 cells (hepatocarcinoma-derived, ATCC HB-8065); human HepG2 cells, 72 hours, MTT
Where a name gives a salt, the structure may show the parent alone.
READOUT: log10 IC50 at 72 h (log10 of the value in µM)
Parameter value (number): base-10 log of IC50 at 72 h in µM.

Recorded log10 IC50 at 72 h, per entry:
CN(C)CCCNCc1ccc(-c2nc(-c3ccc(CNCCCN(C)C)cc3)c3sccc3n2)cc1 [Compound 29B] : 0.50
CN1CCN(CCCNCc2ccc(-c3nc(Cl)nc4[nH]ccc34)cc2)CC1 [Compound 16B, oxalate] : 1.80

// returns reported log10 IC50 at 72 h for input CN1CCN(CCCNCc2ccc(-c3nc(-c4ccc(CNCCCN5CCN(C)CC5)cc4)c4ccn(C)c4n3)cc2)CC1 [Compound 9B, oxalate]
1.60

Which log10 IC50 at 72 h reading was recorded for the compound CN(C)CCCNCc1ccc(-c2nc(NCCCN(C)C)nc3sccc23)cc1 [Compound 28B] ?
1.55

Value lookup for log10 IC50 at 72 h; key = CN(C)CCCNCc1ccc(-c2nc(-c3ccc(CNCCCN(C)C)cc3)c3ccn(C)c3n2)cc1 [Compound 8B, oxalate]
1.21

Recorded log10 IC50 at 72 h for CN(C)CCCNCc1ccc(-c2nc(Cl)nc3c2ccn3-c2ccccc2)s1 [Compound 19B, oxalate] , please?
0.27

For the compound CN(C)CCCNCc1ccc(-c2nc(-c3ccc(CNCCCN(C)C)s3)nc3c2ccn3-c2ccccc2)cc1 [Compound 7B, oxalate] , what log10 IC50 at 72 h is on record?
0.28
